- system: corticotropin releasing factor 1 receptor
- method description: cell-based or functional assay
Ends that are not written are not given here.
recorded endpoint: CRF1R EC50

Completed entries (count: 5):
ZGPPISIDLPKYLLRKMIEIEKQEKEKQQAANNRLLLDTI (C-terminal amide) [SEQ ID NO 58]    > 100 nM
IVLSLDVPIGLLQILLEQRARAAREQATTNARILARV-NH2 [SEQ ID NO 137]    > 100 nM
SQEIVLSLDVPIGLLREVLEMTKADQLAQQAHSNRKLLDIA-NH2 [SEQ ID NO 7]    100 nM
ZGPPISIDLPFQLLRKMIEIEKQEKEKQQATTNRLLLDTV (C-terminal amide) [SEQ ID NO 16]    136 nM
IVLSLDVPIGLLQILLEQARQEAAREQATTNARILARV-NH2 [SEQ ID NO 123]    > 1000 nM

// next item, CRF1R EC50 requested
Summary for this binder, IVLSLDVPIGLLQILLEQAKQRAAREQATTNARILARV-NH2 [SEQ ID NO 110] : CRF1R EC50 is > 100 nM
